// values below are reported melting point
metricName: melting point

1) CC[C@@H](CS(=O)(=O)C(C)c1ccc(C#N)cc1)NC(=O)Oc1ccc(C)cc1 (stereo partly shown) | 50 to 60 °C
2) CC(C)OC(=O)N[C@H](CS(=O)(=O)C(Cl)c1ccc(Cl)cc1)C(C)C (stereo partly shown) | 140 to 143 °C
3) CC(C)OC(=O)N[C@H](CS(=O)(=O)C(C)c1ccc(OC(F)(F)F)cc1)C(C)C (stereo partly shown) | 50 to 60 °C
4) CC[C@@H](CS(=O)(=O)C(C)c1ccc(C#N)cc1)NC(=O)Oc1ccc(F)cc1 (stereo partly shown) | 50 to 62 °C
5) CC(C)OC(=O)N[C@H](CS(=O)(=O)C(C)c1ccc(C=O)cc1)C(C)C (stereo partly shown) | 50 to 60 °C
6) CC(C)OC(=O)N[C@H](CS(=O)(=O)C(C)c1ccc(C#N)cc1)C(C)C (stereo partly shown) | 110 to 120 °C
7) CC(C)[C@@H](CS(=O)(=O)C(C)c1ccc(Br)cc1)NC(=O)Oc1ccc2ccccc2c1 (stereo partly shown) | 129 to 135 °C
